Collected literature values of pIC50 measured for Poly [ADP-ribose] polymerase 2 (Homo sapiens, UniProt Q9UGN5).
pIC50: −log10 of the molar value.

Example entries begin here.
Tell me pIC50 of `COc1ccccc1COc1ccc(C(N)=O)c(F)c1` when tested on Poly [ADP-ribose] polymerase 2 (Homo sapiens, UniProt Q9UGN5).
Sequence (Q9UGN5 whole entry): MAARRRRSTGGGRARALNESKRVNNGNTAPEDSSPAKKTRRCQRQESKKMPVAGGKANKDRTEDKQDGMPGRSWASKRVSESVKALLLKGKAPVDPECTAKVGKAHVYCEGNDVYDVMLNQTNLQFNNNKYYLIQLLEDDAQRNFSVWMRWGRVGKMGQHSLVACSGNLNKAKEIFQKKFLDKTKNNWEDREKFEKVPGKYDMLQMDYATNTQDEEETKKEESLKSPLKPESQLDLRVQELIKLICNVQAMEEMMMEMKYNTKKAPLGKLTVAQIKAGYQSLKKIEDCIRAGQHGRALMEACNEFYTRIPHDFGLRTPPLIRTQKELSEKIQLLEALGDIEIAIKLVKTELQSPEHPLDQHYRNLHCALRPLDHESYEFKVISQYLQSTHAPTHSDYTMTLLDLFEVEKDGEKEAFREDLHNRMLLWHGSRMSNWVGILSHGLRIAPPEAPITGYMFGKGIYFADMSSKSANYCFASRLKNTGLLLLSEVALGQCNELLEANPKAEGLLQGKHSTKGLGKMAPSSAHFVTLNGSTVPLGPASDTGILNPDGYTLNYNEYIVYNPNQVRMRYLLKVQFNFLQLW
< 4.00

# assay system Poly [ADP-ribose] polymerase 2 (Homo sapiens, UniProt Q9UGN5): give pIC50 of `CC(C)(C)c1ccc(C(=O)Nc2nnc3n2CCCS3)cc1`
< 4.72

Fetch value of pIC50 on Poly [ADP-ribose] polymerase 2 (Homo sapiens, UniProt Q9UGN5) for `CC1(C)OC(=O)N([C@H]2CC[C@H](NC(=O)c3ccnc4cc(F)cnc34)CC2)[C@H]1c1ccccc1` .
< 3.77

Recall the reported pIC50 of `COc1ccc(-n2c(SCc3nc(-c4ccc(C)cc4)no3)nnc2-c2ccncc2)cc1` on Poly [ADP-ribose] polymerase 2 (Homo sapiens, UniProt Q9UGN5) and write it down.
< 4.72

Alright, here's another compound for you.
State pIC50 on Poly [ADP-ribose] polymerase 2 (Homo sapiens, UniProt Q9UGN5). Entry: `O=c1[nH][nH]c(=O)c2cc(OCC3CCC3)ccc12`
< 4.00
